RUN DESCRIPTION: qHTS Assay for Spectroscopic Profiling in A350 Spectral Region
CONDITION DETAILS: Compound autofluorescence, 340/450 nm, Alexa 350 dye-equivalents
Among all 59,000 compounds or so, about 6,500 (11%) were called active. Roughly 15% stayed inconclusive and do not appear here. Cut-off read from the data, not from the text of the source: active = max dye-equivalent concentration above about 10 nM; inconclusive = mostly about 1.1 nM to 9.6 nM; inactive = weaker than that. The list comes from a sample in which actives are over-represented; it also holds close analogues and randomly drawn compounds. Peptide text beside a SMILES is read from it.
Possible outcomes: active, inactive

COMPOUND: CC1(C)S[C@@H]2[C@@H](NC(=O)[C@@H](N)c3ccccc3)C(=O)N2[C@H]1C(=O)O
CLASS LABEL: active
//
COMPOUND: CCOc1cc(-c2noc(CCC(=O)N3CCOCC3)n2)ccc1OC
CLASS LABEL: inactive
//
COMPOUND: CC1(C)SC2c3ccccc3C(=O)N2[C@@H]1C(=O)NCc1ccco1 (stereo partly specified)
CLASS LABEL: inactive
//
COMPOUND: COc1cccc(CN2C(=O)CCC2(C)C(=O)NC2CCCCCC2)c1 (stereo unspecified)
CLASS LABEL: inactive
//
COMPOUND: O=C(Oc1ccc(-c2nc(-c3ccccn3)no2)cc1)c1ccccc1
CLASS LABEL: inactive
//
COMPOUND: Cc1nc2nc[nH]n2c(=O)c1NC(=O)c1cccc(OCC(C)C)c1
CLASS LABEL: inactive
//
COMPOUND: CCNc1ncc2nc(CCc3ccccc3)c(=O)n(-c3ccc(OC)cc3)c2n1
CLASS LABEL: active
//
COMPOUND: COc1cccc(-c2cc3nc4c(c(N5CCC6(CC5)OCCO6)n3n2)CCCC4)c1
CLASS LABEL: active
//
COMPOUND: COCCn1c(=O)c(-c2cc(F)cc(F)c2)nc2cnc(N3CCNCC3)nc21
CLASS LABEL: active
//
COMPOUND: Cc1cc(NC(=O)CCC(=O)N(c2ccccc2)C(C(=O)NC2CCCC2)c2ccncc2)no1 (stereo unspecified)
CLASS LABEL: inactive
//
COMPOUND: COc1ccc(CN(C(=O)c2cccs2)c2nccs2)cc1OC
CLASS LABEL: inactive
//
COMPOUND: CCOC(=O)c1cc(NC(=O)c2cccnc2)cc(C(=O)OCC)c1
CLASS LABEL: inactive
//
COMPOUND: CCOc1nc(-c2ccc(OC)cc2)ccc1-c1noc(-c2cc(OC)c(OC)c(OC)c2)n1
CLASS LABEL: active
//
COMPOUND: COc1ccc(-n2c(C)nc3c(cnn3-c3ccccc3)c2=O)cc1
CLASS LABEL: inactive
//
COMPOUND: CC(=O)NC(C(=O)NCC(N)=O)C(C)C (stereo unspecified) (HELM PEPTIDE1{[ac].[CC(C)C(N[*:1])C(=O)[*:2]].G.[am]}$$$$V2.0)
CLASS LABEL: inactive
//
COMPOUND: c1csc(CN2CCN(Cc3cccs3)C2c2cccs2)c1
CLASS LABEL: inactive
//
COMPOUND: Cc1cccc(C)c1NC(=O)N1CC=C(n2c(=O)[nH]c3ccccc32)CC1
CLASS LABEL: inactive
//
COMPOUND: CCOc1ccccc1N(CC(=O)NC1CCCCC1)C(=O)CCCC(=O)Nc1ccccn1
CLASS LABEL: inactive
//
COMPOUND: CCC(=O)Nc1cccc(NC(=O)c2cccnc2)c1
CLASS LABEL: inactive
//
COMPOUND: COc1ccccc1CNC(=O)C1CCN(c2nc3ccccc3o2)CC1
CLASS LABEL: inactive
//
COMPOUND: COc1cccc(-c2nc(S(=O)(=O)c3ccccc3)c(N3CCOCC3)o2)c1
CLASS LABEL: inactive

###

RUN DESCRIPTION: qHTS Assay for Spectroscopic Profiling in A350 Spectral Region
CONDITION DETAILS: Compound autofluorescence, 340/450 nm, Alexa 350 dye-equivalents
Hit rate of the full screen: of about 59,000 compounds, about 6,500 (11%) were called active. About 15% were inconclusive and are not listed. Cut-off read from the data, not from the text of the source: active = max dye-equivalent concentration above about 10 nM; inconclusive = mostly about 1.1 nM to 9.6 nM; inactive = weaker than that. What follows is part of a selection rich in actives, with near analogues and random picks from the rest.
Outcome codes: 1 for active, -1 for inactive

COMPOUND: Cc1cc(NC(=O)COC(=O)c2ccc(F)c(S(=O)(=O)N3CCOCC3)c2)no1
CLASS LABEL: -1

COMPOUND: O=C(c1cc(-c2cccs2)on1)N1CCCCC1
CLASS LABEL: -1

COMPOUND: c1cncc(CNc2ccnc(-c3ccc4c(c3)OCO4)n2)c1
CLASS LABEL: 1

COMPOUND: COc1ccc(-c2nc3cnc(OC)nc3n(Cc3ccc(F)cc3)c2=O)cc1
CLASS LABEL: 1

COMPOUND: Cc1cc(NC(=O)Cn2nc(C(F)(F)F)c3c2CCCC3)no1
CLASS LABEL: -1

COMPOUND: Cc1ccc2cc3cc(C(=O)N4CCCCCC4)oc3nc2c1
CLASS LABEL: 1

COMPOUND: O=C(CSc1nnc(-c2ccco2)n1CC1CCCO1)c1ccccc1 (stereo not drawn)
CLASS LABEL: -1

COMPOUND: O=C(O)c1cscn1
CLASS LABEL: -1

COMPOUND: Cn1c(=O)c2c(nc(OCc3cccnc3)n2Cc2ccccc2)n(C)c1=O
CLASS LABEL: -1

COMPOUND: CCCn1c(O)c(CN2CCCC(C)C2)c(C)c(C#N)c1=O (stereo not drawn)
CLASS LABEL: 1

COMPOUND: COc1ccccc1N=C1SC(C)CN1C(=O)C1CCC1 (stereo not drawn)
CLASS LABEL: -1

COMPOUND: CCCC1C(c2ccccc2)C(C#N)(C#N)C2(C#N)CC1(N)NC2=O (stereo not drawn)
CLASS LABEL: -1

COMPOUND: O=C(O)CCC(=O)Nc1ccc(N2CCOCC2)cc1
CLASS LABEL: -1

COMPOUND: COc1ccccc1-n1cnc2cc(C(=O)NCC3CCCO3)ccc21 (stereo not drawn)
CLASS LABEL: -1

COMPOUND: CN1CCN(C(=O)c2ccc(NS(=O)(=O)c3ccccc3)cc2)CC1
CLASS LABEL: -1

COMPOUND: O=c1c(F)cn(C2CCCO2)c(=O)n1Cc1ccccc1Cl (stereo not drawn)
CLASS LABEL: -1

COMPOUND: O=C(COC(=O)C12CC3CC(CC(C3)C1)C2)NCc1ccco1
CLASS LABEL: 1

COMPOUND: Cc1cccc(N2CCN(C(=O)C3CCN(S(=O)(=O)c4cnc[nH]4)CC3)CC2)c1C
CLASS LABEL: -1

COMPOUND: Cc1nc2cnc(Nc3ccccc3)nc2n(C[C@H]2CCCO2)c1=O
CLASS LABEL: -1

COMPOUND: Cn1c(=O)cc(SCC(=O)N2CCN(C(=O)c3ccco3)CC2)c2ccccc21
CLASS LABEL: -1

COMPOUND: Cn1c(=O)cc(SCC(=O)N2CCCC2)c2cc(Cl)ccc21
CLASS LABEL: 1

COMPOUND: CCOC(=O)C1CCN(C(=O)CSc2cc(=O)n(C)c3ccccc23)CC1
CLASS LABEL: -1

COMPOUND: Cc1nc2cnc(N3CCN(C)CC3)nc2n(C[C@H]2CCCO2)c1=O
CLASS LABEL: 1

###

RUN DESCRIPTION: qHTS Assay for Spectroscopic Profiling in A350 Spectral Region
CONDITION DETAILS: Compound autofluorescence, 340/450 nm, Alexa 350 dye-equivalents
The whole screen tested about 59,000 compounds, of which about 6,500 (11%) were called active. Roughly 15% stayed inconclusive and do not appear here. Rule as the data show it: active = max dye-equivalent concentration above about 10 nM; inconclusive = mostly about 1.1 nM to 9.6 nM; inactive = weaker than that. This is one part of a sample in which actives are shown more often than they occur.
Outcome codes: True = active, False = inactive

COMPOUND: CCOC(=O)COc1ccc(Cl)cc1C1NC(=O)NC(C)=C1C(C)=O (stereo not drawn)
CLASS LABEL: False
--
COMPOUND: CC1CN(C2CCCCC2)c2nc3c(c(=O)n(C)c(=O)n3C)n2C1 (stereo not drawn)
CLASS LABEL: False
--
COMPOUND: O=C(c1cc(C(F)(F)F)cc(C(F)(F)F)c1)N1CCC2(CCCN(c3ccccn3)C2)CC1
CLASS LABEL: False
--
COMPOUND: COc1ccc(C[C@H](N)C(=O)N[C@@H]2[C@H](O)[C@H](n3cnc4c(N(C)C)ncnc43)O[C@@H]2CO)cc1
CLASS LABEL: False
--
COMPOUND: C[C@H](NC(=O)OC(C)(C)C)c1nnc(SCC(N)=O)o1
CLASS LABEL: False
--
COMPOUND: O=C(Cn1cc(C(=O)c2cccs2)c2ccccc21)NCc1cccs1
CLASS LABEL: True
--
COMPOUND: Cc1ccc(S(=O)(=O)C(C#N)c2nc3ccccc3nc2N2CCCC2)cc1C (stereo not drawn)
CLASS LABEL: True
--
COMPOUND: O=C(C1CCCO1)N(Cc1ccccc1)c1ccccc1 (stereo not drawn)
CLASS LABEL: False
--
COMPOUND: COC(=O)c1cn(CC(=O)NCc2cccs2)c2ccccc12
CLASS LABEL: False
--
COMPOUND: Cc1ccc2cc(C#N)c(SCC(=O)NCC3CCCO3)nc2c1C (stereo not drawn)
CLASS LABEL: False
--
COMPOUND: O=C(CCC(=O)c1cccs1)NCc1ccccc1
CLASS LABEL: False
--
COMPOUND: O=C(Nc1cccnc1)c1ccc2c(c1)OCO2
CLASS LABEL: False
--
COMPOUND: CNc1nc(-c2ccccc2OC)nc2ccccc12
CLASS LABEL: False
--
COMPOUND: CCCCC(CCC(=O)Nc1ccc(C(=O)OCC)cc1)C(=O)O (stereo not drawn)
CLASS LABEL: False
--
COMPOUND: CC(NC(=O)CSc1nc2c(cc1C#N)CN(C)CC2)c1ccccc1 (stereo not drawn)
CLASS LABEL: True
--
COMPOUND: CC(N)=NCc1cccc(CN)c1
CLASS LABEL: False
--
COMPOUND: COc1ccccc1-c1cc(NCc2cccs2)ncn1
CLASS LABEL: False
--
COMPOUND: c1ccc(CNc2ncncc2-c2cccnc2)cc1
CLASS LABEL: False
--
COMPOUND: CSCCC(NC(N)=O)C(=O)N(C)CC(=O)Nc1ccc(C)cc1 (stereo not drawn)
CLASS LABEL: False
--
COMPOUND: Cc1cc(C)n(C(=O)c2ccc(S(=O)(=O)N3CCCC3)cc2)n1
CLASS LABEL: False
--
COMPOUND: CCn1c(SCC(=O)NCc2ccco2)nnc1-c1ccc(N)cc1
CLASS LABEL: False
--
COMPOUND: COc1ccc(Br)c2c1C[C@H](C(=O)O)CC2
CLASS LABEL: False
--
COMPOUND: Cc1ccc(S(=O)(=O)Nc2ccccc2CNc2c(C)n(C)n(-c3ccccc3)c2=O)cc1
CLASS LABEL: False
